- ASSAY TARGET: unlabelled HP1α (human, UniProt P45973 1-191)
- Sequence (P45973 whole entry): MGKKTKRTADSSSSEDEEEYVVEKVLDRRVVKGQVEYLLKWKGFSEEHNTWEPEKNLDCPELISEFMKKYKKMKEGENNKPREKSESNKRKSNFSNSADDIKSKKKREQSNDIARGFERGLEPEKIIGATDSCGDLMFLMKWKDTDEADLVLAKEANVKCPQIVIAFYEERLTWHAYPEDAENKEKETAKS

| BINDER | ENDPOINT UNIT | Kd |
| --- | --- | --- |
| ARTKQTARKSTGGK (trimethyl-lysine at K9) [H3K9me3 1–14 peptide] | µM | 7.57 |

Origin of the recorded values: paper PMC4557296
